# System: SR leukemia
# assayProtocol: NCI-60 one-dose screen, 48 h (100 = growth as untreated, 0 = no growth, -100 = all killed)
# protocolConditions: 10 µM unless noted
This is part of a sample that, as a whole, favours compounds with a hit. Of some 83,000 tested, about 20% had one in any assay.
// values below are reported growth
Write down the numeric answer in % and omit the unit.

compound: CCN1CCN(c2cc(C(=O)Nc3nc4ccc(Oc5ccnc(C(=O)NC)c5)cc4s3)cc(C(F)(F)F)c2)CC1
readoutUnit: %
growth: -3.58
--
compound: COc1ccccc1/C=C/C(=O)c1nnn(-c2ccc(C(=O)O)cc2)c1C
readoutUnit: %
growth: 67
--
compound: O=C(/C=C/c1cn(-c2ccccc2)nc1-c1ccc(Cl)cc1)c1cc2ccccc2oc1=O
readoutUnit: %
growth: 45.2
--
compound: Oc1ccc(CSc2nnc(-c3ccc(Oc4ccccc4)cc3)o2)c2cccnc12
readoutUnit: %
growth: 32.2
--
compound: COC(=O)c1c(C(=O)OC)c2n(CC(=O)Nc3cccc4cccnc34)c3ccccc3n2c1C(=O)c1ccc(C)cc1
readoutUnit: %
growth: 122
--
compound: Cc1nc(-c2cc3ccccc3c(N3CCN(C)CC3)n2)cs1
readoutUnit: %
growth: 102
--
compound: N/C(=N\OC(=O)CSc1nc2ccccc2s1)c1ccc2ccccc2c1
readoutUnit: %
growth: 117
--
compound: O=C1[C@@H]2Cc3c([nH]c4ccccc34)[C@H](c3c(Cl)cccc3Cl)N2C(=O)CN1C1CCN(Cc2ccccc2)CC1
readoutUnit: %
growth: 1.57

# value lookup — system SR leukemia, readout growth, item CCCCCCCCCC[C@@H](C)[C@@H]1CC(=O)N[C@H]([C@@H](C)O)C(=O)N[C@@H](C)C(=O)N[C@H](C)C(=O)N[C@@H](CCC(N)=O)C(=O)N[C@H](Cc2ccc(O)cc2)C(=O)N[C@@H](C(C)CC)C(=O)O1 (some centres undefined)
75

What do we get for CS(=O)c1nccc(-c2c(-c3ccc(F)c(OCc4ccccc4)c3)nc3sccn23)n1 (centres undefined) ?
-1.23

What do we get for `Oc1ccc(CSc2nnc(-c3ccc(Br)cc3)o2)c2cccnc12` ?
42.3

What do we get for `O=C(NCCCNc1cc(-c2cn(-c3ccccc3)nc2-c2cccc(O)c2)ccn1)Nc1ccc(F)cc1` ?
17.4

---

# Test system: IGROV1 ovarian
# assayProtocol: NCI-60 one-dose screen, 48 h (100 = growth as untreated, 0 = no growth, -100 = all killed)
# protocolConditions: 10 µM unless noted
This is part of a sample that, as a whole, favours compounds with a hit. Of some 83,000 tested, about 20% had one in any assay.
Give Yes when the value for growth is at least 40%. Give No when it is less.

compound: O=C(NNc1nc2cc(F)cc(F)c2n2cccc12)c1ncccn1
studySystem: IGROV1 ovarian
qualitativeLabel: No
//
compound: NC(=O)N1N=C(c2cc3ccccc3oc2=O)CC1c1cn(-c2ccccc2)nc1-c1ccc(Cl)cc1 (centres undefined)
studySystem: IGROV1 ovarian
qualitativeLabel: No
//
compound: COc1ccc(-c2nc3cc(Cl)c(Cl)cc3n2CC(=O)N=Nc2c(O)[nH]c3ccc(Cl)cc23)cc1
studySystem: IGROV1 ovarian
qualitativeLabel: No

Has `COc1ccc2c(c1)oc1c3[nH]c4ccccc4c3c3c(c21)C(=O)N(O)C3=O` a recorded growth greater than or equal to 40%?
Yes

What do we get for `CCC(=O)Nc1cc(Nc2cc(NC3CC3)n3ncc(C#N)c3n2)ccc1C` ?
No

What do we get for `CN(C)c1ncc(/C=C2\SC(=S)N(Cc3ccccc3Cl)C2=O)s1` ?
Yes

What do we get for `COc1ccc2c(C3=C(c4c[nH]c5ccccc45)C(=O)N(O)C3=O)coc2c1` ?
Yes

What do we get for `CCOC(=O)Nc1cccc(-n2cnc3cc(-c4ccc(O)cc4)ccc32)c1` ?
No

What do we get for `Cc1ccc(/C=C/c2nn3c(-c4ccco4)nnc3s2)cc1` ?
Yes

What do we get for CS(=O)c1nccc(-c2c(-c3ccc(F)c(OCc4ccccc4)c3)nc3sccn23)n1 (centres undefined) ?
Yes

What do we get for `Oc1ccccc1/C=N/Nc1nc(N/N=C/c2ccccc2O)nc(N2CCOCC2)n1` ?
No

What do we get for O=S(=O)(NC1CC2CCC1C2)c1ccc2c(c1)C(=NO)c1cc(S(=O)(=O)NC3CC4CCC3C4)ccc1-2 (centres undefined) ?
No

What do we get for `O=S(=O)(Nc1ccc(-c2nc(-c3cccc(O)c3)c(-c3ccnc(Br)c3)[nH]2)cc1)c1ccccc1` ?
Yes

What do we get for `COc1ccc2oc3c4[nH]c5ccccc5c4c4c(c3c2c1)C(=O)N(O)C4=O` ?
Yes

---

# Tested on: SK-MEL-2 melanoma
# assayProtocol: NCI-60 one-dose screen, 48 h
# protocolConditions: 10 µM unless noted
This is part of a sample that, as a whole, favours compounds with a hit. Of some 83,000 tested, about 20% had one in any assay. Activity calls are given as the source filed them. Rule for the calls: active = growth percent below 10; inactive = the rest.
Reply using exactly one outcome from active, inactive

Example entries begin here.
compound: COc1ccc(C(=O)n2cc(C=O)c3ccccc32)cc1
qualitativeLabel: inactive

compound: Cn1cc(-c2nn3cc(-c4ccncc4)nc3s2)c2cc(Cl)ccc21
qualitativeLabel: inactive

compound: CCCCCCNC(=O)Oc1ccc(/C(=C(\C)c2ccc(OC)cc2)c2ccc(OCCN(C)C)cc2)cc1
qualitativeLabel: inactive

compound: COc1ccc(-c2nn(-c3ccccc3)cc2/C=C/C(=O)c2ccc(NC(=O)CCCCCCC(=O)NO)cc2)cc1
qualitativeLabel: inactive

compound: O=C(Cn1cc(CN2C(=O)c3ccc([N+](=O)[O-])cc3C2=O)nn1)Nc1ccc(F)cc1Cl
qualitativeLabel: inactive

Hi, sorry to bother you, what did the test record for `CC(=O)NC(C)(C)C(=O)N1CCC[C@H]1C(=O)NC(C)(C)C(=O)N[C@@H](C)C(=O)NC(C)(C)C(=O)N[C@@H](C)C(=O)N[C@@H](CCC(N)=O)C(=O)NC(C)(C)C(=O)N[C@H](C(=O)NC(C)(C)C(=O)NCC(=O)N[C@@H](CC(C)C)C(=O)NC(C)(C)C(=O)N1CCC[C@H]1C(=O)N[C@H](C(=O)NC(C)(C)C(=O)NC(C)(C)C(=O)N[C@@H](CCC(N)=O)C(=O)N[C@@H](CCC(N)=O)C(=O)N[C@H](CO)Cc1ccccc1)C(C)C)C(C)C` ?
inactive

What do we get for `COc1cc(O)c2c(c1)[C@H]1O[C@@H]1C[C@H](O)[C@H](O)C(=O)/C=C\C[C@H](C)OC2=O` ?
inactive

What do we get for `COc1ccc(OC)c(NC2=C(Cl)C(=O)C(C)=C(C)C2=O)c1` ?
inactive

What do we get for `Cc1ccc(Nc2ncnc3c2c(C)nn3-c2ccc([N+](=O)[O-])cc2)cc1` ?
inactive

What do we get for `CS(=O)(=O)c1ccc(-c2nn(-c3ccccc3)cc2/C=N/NC(=O)c2ccncc2)cc1` ?
inactive

What do we get for `Oc1ccc(CSc2nnc(-c3ccccc3)n2-c2ccccc2)c2cccnc12` ?
inactive

What do we get for `COc1ccc(-c2nnc(/N=C3/C(=O)Nc4ccc(Br)cc43)o2)cc1` ?
inactive

What do we get for CC1OC(O[C@@H]2[C@H](O)C(CO)OC(O[C@H]3COC(O[C@H]4CC[C@]5(C)[C@H]6CC[C@]78OC[C@@]9(CCC(C)(C)C[C@H]97)[C@H](O)C[C@@]8(C)[C@]6(C)CC[C@H]5C4(C)C)[C@@H](OC4OC(CO)[C@@H](O)[C@@H](O)[C@@H]4O)[C@@H]3O)[C@H]2OC2OC[C@@H](O)[C@@H](O)[C@@H]2O)[C@@H](O)[C@@H](O)[C@H]1O (stereo partly specified) ?
active

What do we get for `Nc1c(C(=O)c2ccccc2)sc2nc(-c3cnccn3)cc(-c3cccs3)c12` ?
inactive

What do we get for `COc1cc(/C=N/n2cnc3oc(-c4ccccc4)cc3c2=N)cc(CN2CCCCC2)c1O` ?
active

What do we get for `CCNC(=O)Oc1ccc(/C(=C(/C)c2ccccc2)c2ccc(OCCN3CCCC3)cc2)cc1` ?
inactive

What do we get for `NS(=O)(=O)c1ccc(Nc2nc(N/N=C/c3ccc(F)cc3)nc(Nc3ccccc3)n2)cc1` ?
active

What do we get for `Cc1ccc(NC(=O)c2ccc(CN3CCN(C)CC3)c(C(F)(F)F)c2)cc1Oc1ccc(-c2[nH]nc3ncnc(N)c23)cc1` ?
inactive

---

# Test system: KM12 colon
# assayProtocol: NCI-60 one-dose screen, 48 h
# protocolConditions: 10 µM unless noted
Compounds without any hit were thinned out: in the full panel of roughly 83,000, 20% have a hit. The source made the active and inactive calls. Rule for the calls: active = growth percent below 10; inactive = the rest.
Reply using exactly one outcome from class 1 for active, class 0 for inactive

Example entries begin here.
chemicalString: O=C1c2c(c3c4cccnc4[nH]c3c3ccc4ccccc4c23)C(=O)N1CCN1CCNCC1
qualitativeLabel: class 0
//
chemicalString: Oc1ccc(CSc2nnc(-c3cnccn3)o2)c2cccnc12
qualitativeLabel: class 0
//
chemicalString: COc1ccc(CCN2C(=O)/C(=C/c3nc(CO)cs3)SC2=S)cc1
qualitativeLabel: class 0

Hi, sorry to bother you, what did the test record for `Oc1ccc(CSc2nnc(-c3ccncc3)n2-c2ccccc2)c2cccnc12` ?
class 0

What do we get for `COc1cc2c3c(n(CCCN4CCCCC4)c(=O)c2cc1OC)-c1cc2c(cc1C3=O)OCO2` ?
class 1
